- tested-on: CYP2B6 (Homo sapiens, UniProt P20813)
- Sequence (P20813 1-491): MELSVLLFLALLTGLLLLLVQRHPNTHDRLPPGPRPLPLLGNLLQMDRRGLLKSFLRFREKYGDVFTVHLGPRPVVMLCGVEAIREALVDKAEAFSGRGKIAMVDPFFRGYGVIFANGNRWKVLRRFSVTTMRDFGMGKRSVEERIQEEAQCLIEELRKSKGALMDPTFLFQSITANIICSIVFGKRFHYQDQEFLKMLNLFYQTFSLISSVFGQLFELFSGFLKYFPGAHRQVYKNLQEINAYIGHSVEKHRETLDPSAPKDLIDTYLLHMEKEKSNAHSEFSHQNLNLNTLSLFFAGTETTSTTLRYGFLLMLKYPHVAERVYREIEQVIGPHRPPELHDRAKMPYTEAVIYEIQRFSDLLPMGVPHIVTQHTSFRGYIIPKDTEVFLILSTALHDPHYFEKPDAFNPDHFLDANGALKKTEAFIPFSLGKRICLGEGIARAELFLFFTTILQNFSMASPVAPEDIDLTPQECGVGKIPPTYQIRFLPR
- experimental-details: CYP inhibition
- measurement-setup: human, human liver microsomes, probe bupropion, CYP2B6 inhibition, HLM, bupropion substrate
assay-readout: inhibition at 10 µM (%)
Answers are plain numbers, in %.

Item `C[C@H]1COc2c(N3CC[C@@H](Nc4ncccn4)C3)c(F)cc3c(=O)c(C(=O)O)cn1c23` : provide inhibition at 10 µM
-1.3
